Source of measurements: paper PMC5540273

Tested on: EPHB6
Conditions: concentration: 1 μM, replicates: in singlicate; n = 1;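 note: KINOMEscan kinase panel screen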
Answer each item with its documented %Inh.

Qu. Identify measured %Inh associated with `O=C(Nc1ccccc1)Nc1cccc(Oc2ccc3nccn3n2)c1`
Ans. 9%

Qu. Answer with reported %Inh of O=C1NC(=O)C(N2CCc3ccccc32)=C1c1ccccc1Cl [SB-373598]
Ans. 31%

Qu. Kindly indicate its recorded %Inh. Item: Cl.Oc1ccc(-c2nc(-c3ccccc3)[nH]c2-c2ccncc2)cc1 [SB-428218]
Ans. 25%

###

System: BRK
Construct: gene PTK6
Settings: concentration: 1 μM, replicates: in singlicate; n = 1
Would you mind telling me the reported %Inh of each entry?
Give your result in % as a bare value.

Qu. Please give measured %Inh of the following entry: `CC(=O)Nc1nc2cnc(Nc3cc(NC(=O)c4cccc(CCC#N)c4)ccc3C)nc2s1`
Ans. 0

Qu. Specify reported %Inh for the compound shown: `O=S(=O)(c1ccc(-c2ccnc3[nH]ccc23)cc1)N1CCCC1`
Ans. 0

Qu. Consider the compound `CN1C(=O)C(Nc2ccc(Cl)c(C(=O)O)c2)=C(c2ccc(Cl)cc2)C1=O` . State its measured %Inh.
Ans. 0

Qu. // Input: `Fc1cc(Cl)ccc1Nc1ccnc2cc(-c3ccc(CN4CCCCC4)o3)ccc12` . Output its %Inh only.
Ans. 14

Qu. Indicate its recorded %Inh; the compound in question is `CS(=O)(=O)c1ccc(-c2c(-c3ncn[nH]3)sc(N3CCOCC3)c2C#N)cc1`
Ans. 0

Qu. Note down %Inh recorded for COc1cc2ncn(-c3cc(OCC4CCCO4)c(C(N)=O)s3)c2cc1OC (stereo not shown)
Ans. 18

Qu. Let me know recorded %Inh for `CS(=O)(=O)c1ccc(-c2nc3n(c2-c2ccncc2)CCC3)cc1` , thanks.
Ans. 15

Qu. Assign %Inh to the following record: `O=C(Nc1n[nH]c2cc(-c3cccc(F)c3F)ccc12)C1CC1`
Ans. 0

Qu. # return recorded %Inh for input `Cc1ccc(-c2cc(-c3c[nH]nc3-c3ccccn3)ccn2)cc1`
Ans. 3

Qu. Return value of %Inh for input CC1=C(C(=O)Nc2cc3cn[nH]c3cc2F)C(c2ccc(C(F)(F)F)cc2)CC(=O)N1 (stereo not shown) , no commentary.
Ans. 20

Qu. Give recorded %Inh. `Cc1cccc(-c2nc(Nc3ccc4[nH]ncc4c3)c3ccccc3n2)n1`
Ans. 2

Qu. Kindly indicate its recorded %Inh. Item: `CCn1c(-c2cccnc2O)nc2cnccc21`
Ans. 0

Qu. Answer with the recorded %Inh of `Cc1ccc(C(=O)Nc2ccc(Nc3ccnc4cc(-c5ccccn5)ccc34)cc2O)cc1.Cl` only.
Ans. 29

###

Tested on: EGFR
Settings: concentration: 1 μM, replicates: in singlicate; n = 1
For each of the compounds below, state its %Inh.
Please give a number only; it is taken to be in %.

Qu. Name the recorded %Inh of the item Cl.NC(=O)c1cccc(Nc2nccc(Nc3ccc(Oc4cccc(Cl)c4)c(Cl)c3)n2)c1 [GW659008] in your answer.
Ans. 96.9

Qu. Entry O=C(Nc1n[nH]c2nc(-c3nccs3)c(Br)cc12)C1CCCC1 [SB-742609] needs its %Inh filled in; supply it.
Ans. 32

Qu. Please supply the value of reported %Inh for the item O=C(Nc1n[nH]c2cc(-c3cccc(F)c3F)ccc12)C1CC1 [SB-733894]
Ans. 12

Qu. Could you please provide reported %Inh for CS(=O)(=O)c1ccc(-c2nc3n(c2-c2ccncc2)CCC3)cc1 [SKF-105942] ? Thanks!
Ans. 5

###

I'd be grateful if you could share measured %Inh for these entries.
System: TNIK
Details: concentration: 1 μM, replicates: in singlicate; n = 1
Field format: number, assumed %, no unit text.

Qu. Give the value of %Inh reported for the following: `O=C(O)COc1ncnc2cc(-c3ccc4[nH]ncc4c3)sc12`
Ans. 10

Qu. Kindly indicate its recorded %Inh. Item: O=C(Nc1ccc2c(c1)OCO2)NC1CCN(c2ccnc(Nc3ccc(F)cc3)n2)C1 (centres unmarked)
Ans. 0

Qu. // fetch %Inh given entry `Cc1c(Cn2ccn3c(=O)cc(N4CCOCC4)nc23)cccc1C(F)(F)F`
Ans. 3

Qu. Give %Inh for the following compound: `Cl.O=C(Nc1cccc(-c2nn3ncccc3c2-c2ccnc(Nc3cccnc3)n2)c1)c1c(F)cccc1F`
Ans. 1

Qu. Please give the documented %Inh of `O=C(Nc1ccccc1)Nc1cccc(Oc2ccc3nccn3n2)c1`
Ans. 7

Qu. Provide only the value of recorded %Inh for `Cc1cccc(-c2nc(C)cc(Nc3ccncc3)n2)n1`
Ans. 0

Qu. Name the recorded %Inh of the item `CCn1c(-c2cccnc2O)nc2cnccc21` in your answer.
Ans. 0

Qu. Annotate the compound `COc1cc2nccc(Nc3ccc(NC(=O)c4ccc(C)cc4)c(O)c3)c2cc1OC.Cl` with its measured %Inh.
Ans. 0

Qu. Provide measured %Inh value, entry: `CC(C)(C)c1ccc(C(=O)Nc2cn3cc(-c4cccnc4)ccc3n2)cc1`
Ans. 25

Qu. For COc1cc(Nc2nccc(N3CCC(NC(=O)Nc4cc(C)ccc4C)C3)n2)cc(OC)c1OC (centres unmarked) , write its %Inh.
Ans. 0

Qu. Indicate the recorded %Inh value for this compound: `CS(=O)(=O)c1ccc(-c2nc3n(c2-c2ccncc2)CCC3)cc1`
Ans. 0

Qu. Annotate the compound `Cl.c1ccc(-c2n[nH]cc2-c2ccnc(-c3ccc(CN4CCOCC4)cc3)c2)nc1` with its measured %Inh.
Ans. 30

Qu. # return recorded %Inh for input `Cn1ccc2ncnc(Oc3ccc(Nc4nc5ccccc5[nH]4)cc3)c21`
Ans. 0

Qu. Provide only the value of recorded %Inh for `Clc1cc(Cl)cc(Nc2ccnc(Nc3cc(Cl)cc(Cl)c3)n2)c1`
Ans. 0

Qu. Return %Inh for the following compound: `CC(=O)Nc1nc2cnc(Nc3cc(NC(=O)c4cccc(CCC#N)c4)ccc3C)nc2s1`
Ans. 7

Qu. Note down %Inh recorded for `Cc1cccc(-c2nc(Nc3ccncc3)c3ccccc3n2)n1`
Ans. 29

Qu. Determine its reported %Inh: `COc1cccc(-c2cc(-c3c[nH]nc3-c3ccccn3)ccn2)c1`
Ans. 71

Qu. Return reported %Inh. Input compound: `NC(=O)c1nnc2ccccc2c1N`
Ans. 3

Qu. Give %Inh for the following compound: `CN(C)CCN(C)C(=O)c1cc(-c2ccncc2)c(-c2ccc(Cl)c(O)c2)o1.Cl.Cl`
Ans. 51

Qu. For the compound `Cn1cncc1-c1ccc2ncnc(Nc3ccc(OCc4ccccc4)cc3)c2c1` , give its measured %Inh value.
Ans. 0

Qu. Give a short answer stating reported %Inh for `COc1cc2ncnc(Nc3ccc4nc(-c5ccccc5)[nH]c4c3)c2cc1OC.Cl` .
Ans. 0

Qu. Tell me its %Inh given `COc1ccc2nc(-c3cccc(C)n3)nc(Nc3ccncc3)c2c1` as the entry.
Ans. 9

Qu. # return recorded %Inh for input `Nc1nc(-c2nccs2)c(-c2ccnc3ccccc23)s1`
Ans. 10

###

System: DYRK2
Conditions: concentration: 1 μM, replicates: in singlicate; n = 1
reported_endpoint: %Inh (%)
Write the answer as a number in %, unit excluded.

Qu. // Input: CCn1c(-c2ccccn2)nc2cnccc21 [SB-736398] . Output its %Inh only.
Ans. 0

Qu. Indicate its recorded %Inh; the compound in question is CCCc1ccc(S(=O)(=O)NC2CCN(c3ccnc(Nc4ccc(F)cc4)n3)C2)cc1 (stereo not shown) [GSK1379715]
Ans. 0

Qu. Give me measured %Inh, please, for this compound: `CC(C)(C)c1ccc(C(=O)Nc2cn3cc(-c4cccnc4)ccc3n2)cc1`
Ans. 51

Qu. Hello, please tell me recorded %Inh for this one: Cc1ccccc1-n1cnc2c(N)ncnc21 [SKF-97510]
Ans. 0

Qu. Output measured %Inh for this item: Nc1ncnc2[nH]c(-c3ccccc3)nc12 [AH5015]
Ans. 68

Qu. Recall and state the measured %Inh for O=C1NC(=O)C(N2CCc3ccccc32)=C1c1ccccc1Cl [SB-373598] .
Ans. 6

Qu. Please give measured %Inh of the following entry: Cc1cc(-c2ccc3c(c2)CC[C@@H](N[C@@H](C)c2ccccc2)C3)cnc1N.Cl [GW412617]
Ans. 0

###

Give measured %Inh for each item. Keep answers brief.
Test system: MAP3K3
Details: concentration: 1 μM, replicates: in singlicate; n = 1
Answer in %, number only, no unit symbol.

Qu. Query %Inh for `COc1ccccc1-c1ccc2c(NC(=O)C3CC3)n[nH]c2n1`
Ans. 0

Qu. Provide %Inh value for the following molecule: `COc1ccc2nc(-c3cccc(C)n3)nc(Nc3ccncc3)c2c1`
Ans. 0

Qu. Provide only the value of recorded %Inh for `Clc1cc(Cl)cc(Nc2ccnc(Nc3cc(Cl)cc(Cl)c3)n2)c1`
Ans. 0

Qu. Assign %Inh to the following record: `Cn1ccc2ncnc(Oc3cccc(C(=O)Nc4ccccc4)c3)c21`
Ans. 0

Qu. Please give measured %Inh of the following entry: `Cl.NC(=O)c1cccc(Nc2nccc(Nc3ccc(Oc4cccc(Cl)c4)c(Cl)c3)n2)c1`
Ans. 0

Qu. Recall and state the measured %Inh for `COc1ccc(C2=C(Nc3cccc(C(=O)O)c3)C(=O)NC2=O)cc1` .
Ans. 7

Qu. State, in one line, measured %Inh of `CS(=O)(=O)c1ccc(-c2nc3n(c2-c2ccncc2)CCC3)cc1`
Ans. 0

Qu. Consider the molecule `Cc1ccc(-c2cc(-c3c[nH]nc3-c3ccccn3)ccn2)cc1` and give its recorded %Inh.
Ans. 0

Qu. Give the reported %Inh for this molecule. `Cc1c(O)cccc1Nc1ccnc2ccc(C(F)(F)F)cc12.Cl`
Ans. 47

Qu. Return reported %Inh. Input molecule: `Cc1cccc(-c2cc(Nc3ccncc3)c3ccccc3n2)n1`
Ans. 0

Qu. Return %Inh for the following molecule: CCCc1ccc(S(=O)(=O)NC2CCN(c3ccnc(Nc4ccc(F)cc4)n3)C2)cc1 (stereo not drawn)
Ans. 0

Qu. Name the recorded %Inh of the item `COC(=O)c1c(-c2ccccc2)c2cc(OC)ccc2c(=O)n1Cc1ccccc1` in your answer.
Ans. 11
